System: Staphylococcus epidermidis
Assay: Antibacterial activity against Staphylococcus epidermidis […] after 24 hrs by macrobroth dilution method
Assay type: functional
recorded_endpoint: MIC
Just so you know, I need the unit written after the number.

Some entries whose results are on file:
NC[C@@H]1O[C@H](O[C@H]2[C@@H](OCc3ccc(Cl)cc3)[C@H](O[C@@H]3[C@@H](OCc4ccc(Cl)cc4)[C@H](N)C[C@H](N)[C@H]3O[C@H]3O[C@H](CN)[C@@H](OCc4ccc(Cl)cc4)[C@H](OCc4ccc(Cl)cc4)[C@H]3N)O[C@@H]2COCc2ccc(Cl)cc2)[C@H](N)[C@@H](OCc2ccc(Cl)cc2)[C@@H]1OCc1ccc(Cl)cc1.O=C(O)C(F)(F)F    32 µg/mL
COC[C@H]1O[C@H](O[C@@H]2[C@@H](OC)[C@H](OC3O[C@H](CN)[C@@H](OC)[C@H](OC)[C@H]3OC)[C@@H](N)C[C@H]2N)[C@H](OC)[C@@H](N)[C@@H]1OC.O=C(O)C(F)(F)F (some centres not stated)    256 µg/mL

Okay, now this compound:
Ask | Which MIC value belongs to NC[C@H]1O[C@H](O[C@H]2[C@H](OC(=O)Nc3ccccc3)[C@@H](O[C@H]3O[C@H](COC(=O)Nc4ccccc4)[C@@H](OC(=O)Nc4ccccc4)[C@H](N)[C@H]3OC(=O)Nc3ccccc3)[C@H](N)C[C@@H]2N)[C@H](OC(=O)Nc2ccccc2)[C@@H](OC(=O)Nc2ccccc2)[C@@H]1OC(=O)Nc1ccccc1.O=C(O)C(F)(F)F ?
Reply | 4 µg/mL

* * *

MIC, Klebsiella pneumoniae, per-entry values.
Numeric only. Scale: µg/mL

Some entries whose results are on file:
NC[C@@H]1O[C@H](O[C@H]2[C@@H](OCc3ccc(Cl)cc3)[C@H](O[C@@H]3[C@@H](OCc4ccc(Cl)cc4)[C@H](N)C[C@H](N)[C@H]3O[C@H]3O[C@H](CN)[C@@H](OCc4ccc(Cl)cc4)[C@H](OCc4ccc(Cl)cc4)[C@H]3N)O[C@@H]2COCc2ccc(Cl)cc2)[C@H](N)[C@@H](OCc2ccc(Cl)cc2)[C@@H]1OCc1ccc(Cl)cc1.O=C(O)C(F)(F)F    128
NC[C@@H]1O[C@H](O[C@H]2[C@@H](OC(=O)Nc3ccccc3)[C@H](O[C@@H]3[C@@H](OC(=O)Nc4ccccc4)[C@H](N)C[C@H](N)[C@H]3O[C@H]3O[C@H](CN)[C@@H](OC(=O)Nc4ccccc4)[C@H](OC(=O)Nc4ccccc4)[C@H]3N)O[C@@H]2COC(=O)Nc2ccccc2)[C@H](N)[C@@H](OC(=O)Nc2ccccc2)[C@@H]1OC(=O)Nc1ccccc1.O=C(O)C(F)(F)F    256
NC[C@@H]1O[C@H](O[C@H]2[C@@H](O)[C@H](O[C@@H]3[C@@H](O)[C@H](N)C[C@H](N)[C@H]3O[C@H]3O[C@H](CN)[C@@H](O)[C@H](O)[C@H]3N)O[C@@H]2CO)[C@H](N)[C@@H](O)[C@@H]1O    1

Ask | Which MIC value belongs to NCC[C@H](O)C(=O)N[C@@H]1C[C@H](N)[C@@H](O[C@H]2O[C@H](CN)[C@@H](O)[C@H](O)[C@H]2O)[C@H](O)[C@H]1O[C@H]1O[C@H](CO)[C@@H](O)[C@H](N)[C@H]1O ?
Reply | 0.5
